Source of measurements: ChEMBL document CHEMBL3632619

Each item that follows carries a reported pIC50.
# Tested on: MDA-MB-468
# experimentDescription: Cytotoxicity against human MDA-MB-468 cells after 72 hrs by MTS assay
# Format: functional, cell-based
# conditionContext: MDA-MB-468, 72 h
pIC50: −log10 of the molar value.
endpoint: pIC50

[[record]]
compound = "C[C@]1(O)CC(=O)c2c(ccc3c2C(=O)c2cccc(O)c2C3=O)C1 [TETRANGOMYCIN]"
endpoint = "pIC50"
comparisonsign = "="
reportedvalue = 4.80

[[record]]
compound = "COc1cccc(C(=O)c2c(O)ccc3c2C(=O)C[C@](C)(O)C3)c1CO"
endpoint = "pIC50"
comparisonsign = "<"
reportedvalue = 4.00

[[record]]
compound = "COc1cccc2c1C(=O)c1ccc3c(c1C2O)C(=O)C[C@](C)(O)C3 (stereo not given in full)"
endpoint = "pIC50"
comparisonsign = "="
reportedvalue = 4.28

[[record]]
compound = "CO[C@@]12[C@H](COC(N)=O)C3=C(C(=O)C(C)=C(N)C3=O)N1C[C@@H]1N[C@@H]12 [MITOMYCIN]"
endpoint = "pIC50"
comparisonsign = "="
reportedvalue = 6.30

[[record]]
compound = "COc1cccc2c1C(=O)c1ccc3c(c1C2=O)C(=O)C[C@](C)(O)C3"
endpoint = "pIC50"
comparisonsign = "="
reportedvalue = 4.57


* * *

# System: M14
# experimentDescription: Cytotoxicity against human M14 cells after 72 hrs by MTS assay
# Type: functional, cell-based
# conditionContext: M14, 72 h
pIC50: −log10 of the molar value.
Entries and their pIC50
endpoint: pIC50

[[record]]
compound = "COc1cccc2c1C(=O)c1ccc3c(c1C2O)C(=O)C[C@](C)(O)C3 (stereo not given in full)"
comparisonsign = "="
reportedvalue = 4.51

[[record]]
compound = "COc1cccc(C(=O)c2c(O)ccc3c2C(=O)C[C@](C)(O)C3)c1CO"
comparisonsign = "<"
reportedvalue = 4.00

[[record]]
compound = "C[C@]1(O)CC(=O)c2c(ccc3c2C(=O)c2cccc(O)c2C3=O)C1"
comparisonsign = "="
reportedvalue = 5.62

[[record]]
compound = "COc1cccc2c1C(=O)c1ccc3c(c1C2=O)C(=O)C[C@](C)(O)C3"
comparisonsign = "="
reportedvalue = 5.01

[[record]]
compound = "CO[C@@]12[C@H](COC(N)=O)C3=C(C(=O)C(C)=C(N)C3=O)N1C[C@@H]1N[C@@H]12"
comparisonsign = "="
reportedvalue = 6.33

